assay protocol: in vivo
Parameters: species or system C57BL/6 line mice
condition parameters: mouse; free base 50 mg/kg, single oral, C57BL/6 mice, plasma; read-out: Cmax
metric: Cmax (ng/mL)
Quick reminder: number only, in ng/mL, skip the unit.

Query string: What value of Cmax has been recorded for this entry: Cc1ccc(C(=O)Nc2ccc(CN3CCN(C)CC3)c(C(F)(F)F)c2)cc1C#Cc1nnc2ccccn12 [free base]
Result string: 1490

###

assay protocol: physchem
Format: physicochemical
condition parameters: deionized water, water; read-out: Apparent solubility
metric: solubility

Query string: Returns the measured solubility for the input compound. Input: Cc1ccc(C(=O)Nc2ccc(CN3CCN(C)CC3)c(C(F)(F)F)c2)cc1C#Cc1nnc2ccccn12 [free base]
Result string: < 1000 µg/mL
